studySystem: Melanocortin receptor 5 (Homo sapiens); note: in other assays of this panel Not Active means under 50% inhibition at 10 µM
Sequence (P33032 whole entry): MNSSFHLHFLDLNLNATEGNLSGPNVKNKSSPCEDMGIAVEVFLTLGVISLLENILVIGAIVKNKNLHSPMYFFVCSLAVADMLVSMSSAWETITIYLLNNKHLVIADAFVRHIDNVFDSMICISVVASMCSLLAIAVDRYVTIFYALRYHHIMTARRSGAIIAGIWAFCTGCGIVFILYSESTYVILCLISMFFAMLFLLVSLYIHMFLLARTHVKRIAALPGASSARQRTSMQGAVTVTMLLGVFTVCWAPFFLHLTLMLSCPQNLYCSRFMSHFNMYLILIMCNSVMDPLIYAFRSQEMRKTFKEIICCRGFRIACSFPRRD
Type: cell membranes, HEK293, Membrane
testParameters: hek293; read-out: Ki
measurementName: Ki (µM)
// units = µM; emit number, no label

Task: For CISPLATIN , what is its reported Ki?
Result: 6.04

====

studySystem: Mitogen-activated protein kinase 3 (Homo sapiens, UniProt P27361)
Sequence (P27361 whole entry): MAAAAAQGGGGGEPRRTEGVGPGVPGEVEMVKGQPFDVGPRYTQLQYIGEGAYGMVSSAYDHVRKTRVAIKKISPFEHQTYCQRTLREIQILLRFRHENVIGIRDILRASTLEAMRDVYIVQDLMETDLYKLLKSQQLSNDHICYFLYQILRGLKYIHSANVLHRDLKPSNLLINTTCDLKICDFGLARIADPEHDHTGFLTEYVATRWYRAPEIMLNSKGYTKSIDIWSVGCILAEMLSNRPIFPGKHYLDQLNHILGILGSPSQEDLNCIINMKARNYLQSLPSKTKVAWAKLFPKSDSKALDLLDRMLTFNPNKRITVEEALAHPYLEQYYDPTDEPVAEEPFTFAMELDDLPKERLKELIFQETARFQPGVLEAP
protocolNotes: DRUGMATRIX: Protein Serine/Threonine Kinase, ERK1 enzyme inhibition (substrate: Myelin Basic Protein)
Design: species or system Escherichia coli
testParameters: Not Active = under 50% inhibition at 10 µM

molecule	IC50
O=C1CN=C(c2ccccc2)c2cc([N+](=O)[O-])ccc2N1 [NITRAZEPAM]	Not Active
CO[C@@H]1[C@@H](O[C@@H]2O[C@H](C)[C@@H](O[C@H]3C[C@@](C)(O)[C@@H](OC(=O)CC(C)C)[C@H](C)O3)[C@H](N(C)C)[C@H]2O)[C@@H](CC=O)C[C@@H](C)[C@@H](O)/C=C/C=C/C[C@@H](C)OC(=O)C[C@H]1O [KITASAMYCIN]	Not Active
O=C(O)c1cn(C2CC2)c2cc(N3CCNCC3)c(F)cc2c1=O [CIPROFLOXACIN]	Not Active

====

studySystem: Type-2 angiotensin II receptor (Homo sapiens); note: in other assays of this panel Not Active means under 50% inhibition at 10 µM
Sequence (P50052 whole entry): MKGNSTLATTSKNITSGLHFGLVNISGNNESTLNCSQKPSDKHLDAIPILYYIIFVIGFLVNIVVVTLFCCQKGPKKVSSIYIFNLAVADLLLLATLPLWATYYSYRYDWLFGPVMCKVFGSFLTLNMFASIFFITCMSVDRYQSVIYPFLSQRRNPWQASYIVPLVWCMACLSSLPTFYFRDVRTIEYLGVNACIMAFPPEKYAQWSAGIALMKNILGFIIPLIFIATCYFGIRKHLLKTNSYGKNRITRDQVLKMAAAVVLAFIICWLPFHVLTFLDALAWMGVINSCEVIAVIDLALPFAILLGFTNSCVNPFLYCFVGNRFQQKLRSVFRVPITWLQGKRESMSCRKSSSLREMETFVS
Assay type: cell-based
testParameters: cho-k1
measurementName: IC50

Use these answered entries as a reference point.
compound	IC50
COc1ccc2c(c1)c(CC(=O)OCC(=O)O)c(C)n2C(=O)c1ccc(Cl)cc1 [ACEMETACIN]	Not Active
CC1=Nc2ccc(Cl)cc2S(=O)(=O)N1 [DIAZOXIDE]	Not Active
Nc1nc2c(ncn2COC(CO)CO)c(=O)[nH]1 [GANCICLOVIR]	Not Active
Oc1cccc2cccnc12 [OXYQUINOLINE]	Not Active
CC[N+](CC)(CC)CCOc1cccc(OCC[N+](CC)(CC)CC)c1OCC[N+](CC)(CC)CC.[I-].[I-].[I-] [GALLAMINE TRIETHIODIDE]	Not Active

Task: For C=C(C)[C@@H]1[C@H]2OC(=O)[C@@H]1[C@]1(O)C[C@H]3O[C@]34C(=O)O[C@H]2[C@]14C [PICROTOXININ] , what is its reported IC50?
Result: Not Active

Task: For CC[C@@]1(O)C(=O)OCc2c1cc1n(c2=O)Cc2cc3ccccc3nc2-1 [CAMPTOTHECIN] , what is its reported IC50?
Result: Not Active

Task: For N#C[C@H](O[C@@H]1O[C@H](CO[C@@H]2O[C@H](CO)[C@@H](O)[C@H](O)[C@H]2O)[C@@H](O)[C@H](O)[C@H]1O)c1ccccc1 [AMYGDALIN] , what is its reported IC50?
Result: Not Active

Task: For CC(C)(O)c1ccccc1CC[C@@H](SCC1(CC(=O)O)CC1)c1cccc(/C=C/c2ccc3ccc(Cl)cc3n2)c1 [MONTELUKAST] , what is its reported IC50?
Result: Not Active

Task: For CC(C)(C)NCC(O)c1cc(O)cc(O)c1 (centres undefined) [TERBUTALINE] , what is its reported IC50?
Result: Not Active

Task: For CC(=O)OCC(=O)[C@@]1(OC(C)=O)[C@@H](C)C[C@H]2[C@@H]3C[C@H](F)C4=CC(=O)C=C[C@]4(C)[C@@]3(F)[C@@H](O)C[C@@]21C [DIFLORASONE DIACETATE] , what is its reported IC50?
Result: Not Active

Task: For CCC[C@@H]1C[C@@H](C(=O)N[C@@H]([C@H]2O[C@H](SC)[C@H](O)[C@@H](O)[C@H]2O)[C@@H](C)O)N(C)C1 [LINCOMYCIN] , what is its reported IC50?
Result: Not Active

Task: For CC[C@H]1OC(=O)[C@H](C)[C@@H](O[C@H]2C[C@@](C)(OC)[C@@H](O)[C@H](C)O2)[C@H](C)[C@@H](O[C@@H]2O[C@H](C)C[C@H](N(C)C)[C@H]2O)[C@](C)(O)C[C@@H](C)/C(=N\OCOCCOC)[C@H](C)[C@@H](O)[C@]1(C)O [ROXITHROMYCIN] , what is its reported IC50?
Result: Not Active

Task: For O=c1cc(-c2ccccc2)oc2c1ccc1ccccc12 [ALPHA-NAPHTHOFLAVONE] , what is its reported IC50?
Result: Not Active
